molecular target: hOX1R (Homo sapiens); assay: hOX1R FLIPR Ca2+ flux assay; type: cell-based
MEASURED ATTRIBUTE: IC50 (nM)
Entry rule: numbers only, all in nM.

Give the reported value of IC50 for this record: Cc1oc(C[C@H]2CCCCN2C(=O)c2ccccc2C2CC2)nc1C(C)(C)O
212

----------
pIC50 for assorted compounds
molecular target: UniProt:O43614; assay: hOX2R FLIPR Ca2+ flux assay; settings: CHO cells expressing human orexin-2 receptor; agonist 70 pM Ala-6,12 orexin-A
Note on pIC50: it is the negative log10 of concentration, concentration in mol/L.

Observe how each entry below is paired with its result.
compound="Cc1oc(C[C@H]2CCCCN2C(=O)c2cccnc2-n2cccn2)nc1C(C)(C)O [Example 13]" system_name=UniProt:O43614 measured_attribute=pIC50 reported_value=7.62
compound="Cc1oc(C[C@H]2CCCCN2C(=O)c2ccccc2-n2ncnn2)nc1C(C)(C)O [Example 28]" system_name=UniProt:O43614 measured_attribute=pIC50 reported_value=6.82
compound="Cc1oc(C[C@H]2CCCCN2C(=O)c2ccccc2N2CCCC2)nc1C(C)(C)O [Example 7]" system_name=UniProt:O43614 measured_attribute=pIC50 reported_value=7.29

Query compound follows.
Determine its reported pIC50: Cc1oc(C[C@H]2CCCCN2C(=O)c2ccccc2-c2ncccn2)nc1C(C)(C)O [Example 31]
7.33

----------
molecular target: human orexin-2 receptor (Homo sapiens (Human), UniProt O43614); assay: hOX2R FLIPR Ca2+ flux assay; conditions: CHO cells expressing human orexin-2 receptor; agonist 70 pM Ala-6,12 orexin-A
Sequence (O43614 whole entry): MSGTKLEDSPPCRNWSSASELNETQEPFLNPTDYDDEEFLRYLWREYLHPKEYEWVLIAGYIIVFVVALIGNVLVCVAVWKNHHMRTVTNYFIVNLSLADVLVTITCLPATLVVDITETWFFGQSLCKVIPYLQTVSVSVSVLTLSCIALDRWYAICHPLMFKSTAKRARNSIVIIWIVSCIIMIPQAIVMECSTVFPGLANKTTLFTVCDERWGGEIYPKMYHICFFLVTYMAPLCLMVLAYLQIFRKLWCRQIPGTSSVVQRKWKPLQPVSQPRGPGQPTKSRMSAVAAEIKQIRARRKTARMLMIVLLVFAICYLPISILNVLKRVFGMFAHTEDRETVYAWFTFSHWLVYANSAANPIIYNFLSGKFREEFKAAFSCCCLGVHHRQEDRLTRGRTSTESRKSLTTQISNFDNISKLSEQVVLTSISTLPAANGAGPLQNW
MEASURED ATTRIBUTE: IC50
Returns: string containing the number followed by the unit.

Reference set (2 entries):
compound="Cc1oc(C[C@H]2CCCCN2C(=O)c2ccccc2OC(F)F)nc1C(C)(C)O [Example 15]" system_name="human orexin-2 receptor (Homo sapiens (Human), UniProt O43614)" reported_value="98 nM"
compound="Cc1oc(C[C@H]2CCCCN2C(=O)c2ccccc2OCC(F)(F)F)nc1C(C)(C)O [Example 17]" system_name="human orexin-2 receptor (Homo sapiens (Human), UniProt O43614)" reported_value="99 nM"

Could you now look at the following compound, please?
Give recorded IC50. Cc1oc(C[C@H]2CCCCN2C(=O)c2ccccc2CC(F)F)nc1C(C)(C)O [Example 12]
98 nM
